FYI, the data here is from the supplement of paper PMC10567573.

B1: PRAME (parent)
chain: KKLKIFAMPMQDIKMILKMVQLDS

- Variants of: B1
- testProtocol: protein stability index of a GFP-peptide fusion (GPS, HEK-293T) (PSI 1-6); higher = more stable;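 note: lentivirally expressed fusions sorted by FACS into six bins by GFP to DsRed ratio, PSI derived from sequencing read proportions per bin multiplied by bin number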
- measurementContext: c terminus: a fixed tail appended
Please mark fulfilled if the recorded protein stability index is equal to or greater than 2, and not fulfilled if it falls below.

# mutations, qualitativeLabel
rows = [
    ("L17G", "not fulfilled"),
    ("S24E", "fulfilled"),
    ("F6G", "fulfilled"),
    ("K18E", "fulfilled"),
    ("D23K", "fulfilled"),
    ("M10A", "not fulfilled"),
    ("S24A", "fulfilled"),
    ("M8E", "not fulfilled"),
    ("L3M", "fulfilled"),
    ("M15G", "fulfilled"),
    ("Q11T", "fulfilled"),
    ("A7W", "fulfilled"),
    ("L22Y", "fulfilled"),
    ("K2P", "fulfilled"),
    ("I5C", "fulfilled"),
    ("D23I", "fulfilled"),
    ("D12F", "fulfilled"),
    ("S24V", "fulfilled"),
    ("D12I", "not fulfilled"),
    ("A7G", "not fulfilled"),
    ("K18Y", "fulfilled"),
    ("L22M", "not fulfilled"),
    ("I13A", "fulfilled"),
    ("K4A", "fulfilled"),
    ("F6Q", "not fulfilled"),
    ("M8R", "fulfilled"),
    ("P9F", "fulfilled"),
    ("V20P", "fulfilled"),
    ("F6W", "fulfilled"),
    ("M19P", "not fulfilled"),
    ("M15K", "fulfilled"),
    ("M8W", "fulfilled"),
    ("K4I", "fulfilled"),
    ("M8D", "fulfilled"),
    ("L17S", "fulfilled"),
    ("V20Q", "fulfilled"),
    ("M8T", "fulfilled"),
    ("M10D", "fulfilled"),
    ("M8L", "fulfilled"),
    ("L17Y", "fulfilled"),
    ("P9L", "not fulfilled"),
    ("K18S", "fulfilled"),
    ("V20T", "fulfilled"),
    ("K14H", "fulfilled"),
    ("Q11V", "fulfilled"),
]
